Provenance of the data: patent US9925251B2

- test_target: Mtb ClpP1P2 (Mycobacterium tuberculosis, UniProt P9WPC3+P9WPC5)
- Assay type: biochemical
- condition_notes: substance is the substrate; Z-Gly-Gly-Leu-amc = 100
Starred links: 1 amine or outer side, 2 acyl side, 3 side chain; linkers in the order of their positions; H or OH if unused. Suc = O=C(CCC(=O)[*:2])[*:1]; amc = not defined here
RELATIVE RATES OF HYDROLYSIS (%) vs 0.3%: at or above is Fulfilled, below is Not fulfilled.

Sample answers from the record:
Suc-Leu-Leu-Val-Tyr-amc (Suc-LLVY-amc; reading uncertain)
Fulfilled
Z-Gly-Gly-Arg-amc
Fulfilled
Suc-Ala-Ala-Phe-amc
Fulfilled
Z-Leu-Leu-Leu-amc
Not fulfilled

Q) Can `Ala-Ala-Phe-amc` be said to have RELATIVE RATES OF HYDROLYSIS (%) at or above 0.3%?
A) Fulfilled

Q) Can Suc-Ala-Leu-Pro-Phe-amc (Suc-ALPF-amc; reading uncertain) be said to have RELATIVE RATES OF HYDROLYSIS (%) at or above 0.3%?
A) Not fulfilled

Q) Can `Z-Gly-Gly-Leu-amc` be said to have RELATIVE RATES OF HYDROLYSIS (%) at or above 0.3%?
A) Fulfilled

Q) Can `Z-Phe-Val-Arg-amc` be said to have RELATIVE RATES OF HYDROLYSIS (%) at or above 0.3%?
A) Not fulfilled

Q) Can `Z-Leu-Leu-Arg-amc` be said to have RELATIVE RATES OF HYDROLYSIS (%) at or above 0.3%?
A) Not fulfilled

Q) Can `Ac-Nle-Pro-Nle-Asp-amc` be said to have RELATIVE RATES OF HYDROLYSIS (%) at or above 0.3%?
A) Fulfilled

Q) Can `Z-Leu-Leu-Glu-amc` be said to have RELATIVE RATES OF HYDROLYSIS (%) at or above 0.3%?
A) Fulfilled

Q) Can `Z-Ala-Ala-Ala-amc` be said to have RELATIVE RATES OF HYDROLYSIS (%) at or above 0.3%?
A) Fulfilled

Q) Can `Suc-Leu-Tyr-amc` be said to have RELATIVE RATES OF HYDROLYSIS (%) at or above 0.3%?
A) Fulfilled

Q) Can Suc-Ala-Ala-Pro-Ala-amc (Suc-AAPA-amc; reading uncertain) be said to have RELATIVE RATES OF HYDROLYSIS (%) at or above 0.3%?
A) Not fulfilled

----------
Exercise: for every item that follows, state its recorded pKd.
- test_target: Mtb ClpP1P2 (Mycobacterium tuberculosis, UniProt P9WPC3+P9WPC5)
- assay_notes: biochemical
Numbers only, as −log10 of the molar value.

CC(C)C[C@H](NC(=O)[C@H](CC(C)C)NC(=O)OCc1ccccc1)C(=O)O [Z-Leu-Leu]
2.66

Q) Name the recorded pKd of the compound listed here: CC(C)C[C@@H](C=O)NC(=O)[C@H](CC(C)C)NC(=O)OCc1ccccc1 [Z-Leu-Leu-aldehyde]
A) 3.62
